experimentalSetup: male, human, blood, oral, 20 gm/day

- compound: "CN(CC(=O)O)C(=N)N.O [creatine•H2O, creatine monohydrate]"
  concentration at 15 min, ng/mL: 40800

---

experimentalSetup: male, human, blood, oral, 20 gm/day

- compound: "CN(CC(=O)O)C(=N)N.O [creatine•H2O, creatine monohydrate]"
  concentration at 30 min / µg/mL: 138
